- PROTOCOL_TEXT: Phase I clinical pharmacokinetics (plasma, LC-MS/MS)
- Format: in vivo, human
- DETAILS: human, plasma, oral; individual patient, 50 mg QD, 21/28 day schedule; read-out: AUC0-24 h
MEASUREMENT_NAME: AUC(0-t)

Record summary for Cc1c(CN2CCN(C(=O)[C@H](C)O)CC2)sc2c(N3CCOCC3)nc(-c3cnc(N)nc3)nc12 : reported AUC(0-t) = ~3 µM·h

----------
- TARGET_DESC: mTOR (Homo sapiens)
MEASUREMENT_NAME: pKi
Give only the number. pKi is defined as minus log10 of concentration in molar units.

Record summary for Cc1c(CN2CCN(C(=O)[C@H](C)O)CC2)sc2c(N3CCOCC3)nc(-c3cnc(N)nc3)nc12 : reported pKi = 7.76
